- assay: Critical mole ratio or critical mass ratio of medicines and beta-cyclodextrin derivative (Table 1, examples)
- Format: physicochemical
- study.conditions: beta-cyclodextrin derivative (hydroxide propyl beta-cyclodextrin in the examples) to medicine; complex dissolves exactly in water to stable solution
property.name: Critical value mole ratio
Respond using a number only.

Below are worked cases with known answers.
compound: O=C1Nc2ccc(Cl)cc2C(c2ccccc2Cl)=NC1O (stereo not shown)
test.result: 3
//
compound: CN(Cc1cc(Br)cc(Br)c1N)C1CCCCC1
test.result: 3
//
compound: CC(=O)N1CCN(c2ccc(OCC3COC(Cn4ccnc4)(c4ccc(Cl)cc4Cl)O3)cc2)CC1 (stereo not shown)
test.result: 3
//
compound: Nc1ccc(S(=O)(=O)Nc2ncccn2)cc1
test.result: 3
//
compound: CC(=O)S[C@@H]1CC2=CC(=O)CC[C@]2(C)[C@H]2CC[C@@]3(C)[C@@H](CC[C@@]34CCC(=O)O4)[C@H]12
test.result: 3
//
compound: C[C@H]1[C@H](OC(=O)CCC(=O)O)O[C@@H]2O[C@@]3(C)CC[C@H]4[C@H](C)CC[C@@H]1[C@@]24OO3 [Artesunate]
test.result: 3

Value lookup for Critical value mole ratio; key = "C[C@]12CC[C@H](O)CC1=CC[C@@H]1[C@@H]2CC[C@]2(C)C(=O)CC[C@@H]12"
3
